Data provenance is patent US20240366598A1.

Molecular target: human Glucose-dependent Insulinotropic Polypeptide Receptor (hGIPR) (Homo sapiens, UniProt P48546)
Sequence (P48546 22-466): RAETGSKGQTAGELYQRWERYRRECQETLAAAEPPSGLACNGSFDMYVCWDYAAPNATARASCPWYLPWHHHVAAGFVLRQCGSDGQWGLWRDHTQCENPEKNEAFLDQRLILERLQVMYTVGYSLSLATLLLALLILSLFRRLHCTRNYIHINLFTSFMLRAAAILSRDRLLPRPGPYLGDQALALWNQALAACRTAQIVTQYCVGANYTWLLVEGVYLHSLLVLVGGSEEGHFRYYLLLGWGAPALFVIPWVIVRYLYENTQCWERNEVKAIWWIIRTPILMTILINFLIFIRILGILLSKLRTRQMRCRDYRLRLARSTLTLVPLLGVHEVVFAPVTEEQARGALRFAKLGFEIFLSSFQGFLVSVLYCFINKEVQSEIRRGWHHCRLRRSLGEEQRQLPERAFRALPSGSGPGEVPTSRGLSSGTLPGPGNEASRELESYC
Assay: Functional in vitro GIPR antagonist potency assay (cAMP HTRF, CHO-K1 cells stably expressing hGIPR, hGIP stimulation at about EC80)
Details: geometric mean, hGIP at estimated EC80, examples marked ^2: overall geometric mean of multiple forms (including salts) tested
Experimental: Example AA. Functional In Vitro GIPR Antagonist Potency Assay The functional in vitro antagonist potency for test compounds was determined by monitoring intracellular cyclic adenosine monophosphate (cAMP) levels in Chinese hamster ovary (CHO)—K1 cells stably expressing the human Glucose-dependent Insulinotropic Polypeptide Receptor (hGIPR). […] Intracellular cAMP levels are quantitated using a homogenous assay utilizing the Homogeneous Time Resolved Fluorescence (HTRF) technology from Perkin Elmer. […]
Definition: the class of an entry is the range in L = under 20 nM, M = from 20 nM up to 40 nM, H = 40 nM and over that contains its IC50.

Request: GET /class?item= `CC(C)c1ccc(NC(=O)N2CCC[C@@H]2C(=O)Nc2ncc(-c3ccc(C(=O)O)cc3)cc2F)cc1`
Response: H
